Value source: the supplement of paper PMC10567573

The following variants are listed with their measured protein stability index values.
B1: NEK8 (parent)
chain: VVGTPCYISPELCEGKPYNQKSDI

Variants of: B1
ASSAY_PROTOCOL: protein stability index of a GFP-peptide fusion (GPS, HEK-293T) (PSI 1-6); higher = more stable;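 also: lentivirally expressed fusions sorted by FACS into six bins by GFP to DsRed ratio, PSI derived from sequencing read proportions per bin multiplied by bin number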
SETUP_CONDITIONS: c terminus: a fixed tail appended
ASSAY_ENDPOINT: protein stability index

[
  {
    "RESIDUE_CHANGE": "P17T",
    "EXPERIMENTAL_VALUE": 3
  },
  {
    "RESIDUE_CHANGE": "N19T",
    "EXPERIMENTAL_VALUE": 2.98
  },
  {
    "RESIDUE_CHANGE": "G3S",
    "EXPERIMENTAL_VALUE": 3.01
  },
  {
    "RESIDUE_CHANGE": "V2P",
    "EXPERIMENTAL_VALUE": 3.44
  },
  {
    "RESIDUE_CHANGE": "K16P",
    "EXPERIMENTAL_VALUE": 2.15
  },
  {
    "RESIDUE_CHANGE": "G15D",
    "EXPERIMENTAL_VALUE": 2.93
  },
  {
    "RESIDUE_CHANGE": "Y18C",
    "EXPERIMENTAL_VALUE": 3.05
  },
  {
    "RESIDUE_CHANGE": "E11P",
    "EXPERIMENTAL_VALUE": 1.76
  },
  {
    "RESIDUE_CHANGE": "Q20G",
    "EXPERIMENTAL_VALUE": 2.71
  },
  {
    "RESIDUE_CHANGE": "Y18T",
    "EXPERIMENTAL_VALUE": 3.68
  },
  {
    "RESIDUE_CHANGE": "V1G",
    "EXPERIMENTAL_VALUE": 4.28
  },
  {
    "RESIDUE_CHANGE": "N19E",
    "EXPERIMENTAL_VALUE": 2.94
  },
  {
    "RESIDUE_CHANGE": "E11M",
    "EXPERIMENTAL_VALUE": 2.32
  },
  {
    "RESIDUE_CHANGE": "C6R",
    "EXPERIMENTAL_VALUE": 3.88
  },
  {
    "RESIDUE_CHANGE": "I8R",
    "EXPERIMENTAL_VALUE": 3.7
  },
  {
    "RESIDUE_CHANGE": "C13I",
    "EXPERIMENTAL_VALUE": 2.48
  },
  {
    "RESIDUE_CHANGE": "Y18L",
    "EXPERIMENTAL_VALUE": 2.8
  },
  {
    "RESIDUE_CHANGE": "P5Q",
    "EXPERIMENTAL_VALUE": 3.62
  },
  {
    "RESIDUE_CHANGE": "I8G",
    "EXPERIMENTAL_VALUE": 4.42
  },
  {
    "RESIDUE_CHANGE": "E14W",
    "EXPERIMENTAL_VALUE": 2.5
  },
  {
    "RESIDUE_CHANGE": "I24S",
    "EXPERIMENTAL_VALUE": 3.56
  },
  {
    "RESIDUE_CHANGE": "Y7C",
    "EXPERIMENTAL_VALUE": 4.16
  },
  {
    "RESIDUE_CHANGE": "S9Q",
    "EXPERIMENTAL_VALUE": 2.62
  },
  {
    "RESIDUE_CHANGE": "S22H",
    "EXPERIMENTAL_VALUE": 2.77
  },
  {
    "RESIDUE_CHANGE": "P17M",
    "EXPERIMENTAL_VALUE": 2.35
  },
  {
    "RESIDUE_CHANGE": "Y18Q",
    "EXPERIMENTAL_VALUE": 3.5
  },
  {
    "RESIDUE_CHANGE": "S9W",
    "EXPERIMENTAL_VALUE": 2.25
  },
  {
    "RESIDUE_CHANGE": "V2D",
    "EXPERIMENTAL_VALUE": 3.9
  },
  {
    "RESIDUE_CHANGE": "Y7R",
    "EXPERIMENTAL_VALUE": 3.96
  },
  {
    "RESIDUE_CHANGE": "Y7K",
    "EXPERIMENTAL_VALUE": 3.92
  },
  {
    "RESIDUE_CHANGE": "S22R",
    "EXPERIMENTAL_VALUE": 3.01
  },
  {
    "RESIDUE_CHANGE": "K21M",
    "EXPERIMENTAL_VALUE": 2.07
  },
  {
    "RESIDUE_CHANGE": "Q20W",
    "EXPERIMENTAL_VALUE": 1.89
  },
  {
    "RESIDUE_CHANGE": "S9F",
    "EXPERIMENTAL_VALUE": 1.96
  },
  {
    "RESIDUE_CHANGE": "G15R",
    "EXPERIMENTAL_VALUE": 2.85
  },
  {
    "RESIDUE_CHANGE": "P5K",
    "EXPERIMENTAL_VALUE": 3.18
  },
  {
    "RESIDUE_CHANGE": "V2I",
    "EXPERIMENTAL_VALUE": 3.56
  },
  {
    "RESIDUE_CHANGE": "P10W",
    "EXPERIMENTAL_VALUE": 1.9
  },
  {
    "RESIDUE_CHANGE": "V1A",
    "EXPERIMENTAL_VALUE": 3.78
  },
  {
    "RESIDUE_CHANGE": "P17G",
    "EXPERIMENTAL_VALUE": 2.76
  },
  {
    "RESIDUE_CHANGE": "V2Q",
    "EXPERIMENTAL_VALUE": 3.77
  },
  {
    "RESIDUE_CHANGE": "T4A",
    "EXPERIMENTAL_VALUE": 2.95
  },
  {
    "RESIDUE_CHANGE": "P17K",
    "EXPERIMENTAL_VALUE": 2.99
  },
  {
    "RESIDUE_CHANGE": "E14D",
    "EXPERIMENTAL_VALUE": 2.45
  },
  {
    "RESIDUE_CHANGE": "S22P",
    "EXPERIMENTAL_VALUE": 3.08
  },
  {
    "RESIDUE_CHANGE": "Y18V",
    "EXPERIMENTAL_VALUE": 3.67
  },
  {
    "RESIDUE_CHANGE": "C6S",
    "EXPERIMENTAL_VALUE": 3.08
  },
  {
    "RESIDUE_CHANGE": "S9K",
    "EXPERIMENTAL_VALUE": 3.61
  },
  {
    "RESIDUE_CHANGE": "N19P",
    "EXPERIMENTAL_VALUE": 2.82
  },
  {
    "RESIDUE_CHANGE": "N19W",
    "EXPERIMENTAL_VALUE": 2.02
  },
  {
    "RESIDUE_CHANGE": "K21L",
    "EXPERIMENTAL_VALUE": 2.41
  },
  {
    "RESIDUE_CHANGE": "S22C",
    "EXPERIMENTAL_VALUE": 2.52
  },
  {
    "RESIDUE_CHANGE": "Y18H",
    "EXPERIMENTAL_VALUE": 2.7
  },
  {
    "RESIDUE_CHANGE": "S9C",
    "EXPERIMENTAL_VALUE": 1.94
  },
  {
    "RESIDUE_CHANGE": "E11H",
    "EXPERIMENTAL_VALUE": 2.03
  },
  {
    "RESIDUE_CHANGE": "C6W",
    "EXPERIMENTAL_VALUE": 2.5
  },
  {
    "RESIDUE_CHANGE": "E11D",
    "EXPERIMENTAL_VALUE": 3.16
  },
  {
    "RESIDUE_CHANGE": "N19V",
    "EXPERIMENTAL_VALUE": 2.73
  },
  {
    "RESIDUE_CHANGE": "V1C",
    "EXPERIMENTAL_VALUE": 3.31
  },
  {
    "RESIDUE_CHANGE": "Y18I",
    "EXPERIMENTAL_VALUE": 2.79
  },
  {
    "RESIDUE_CHANGE": "P17V",
    "EXPERIMENTAL_VALUE": 2.55
  },
  {
    "RESIDUE_CHANGE": "S9R",
    "EXPERIMENTAL_VALUE": 2.48
  },
  {
    "RESIDUE_CHANGE": "D23L",
    "EXPERIMENTAL_VALUE": 2.15
  },
  {
    "RESIDUE_CHANGE": "G15I",
    "EXPERIMENTAL_VALUE": 2.41
  },
  {
    "RESIDUE_CHANGE": "S22Y",
    "EXPERIMENTAL_VALUE": 2.37
  },
  {
    "RESIDUE_CHANGE": "S9E",
    "EXPERIMENTAL_VALUE": 3.16
  }
]
